The reported numbers originate from patent US8686024B2.

# measured on: butyrylcholine esterase (BuChE) (Mus musculus, UniProt Q03311)
# Construct: brain homogenate and serum of mouse were used as choline esterase enzyme sources; from tissue; host or cells: mouse serum
# Sequence (Q03311 30-603): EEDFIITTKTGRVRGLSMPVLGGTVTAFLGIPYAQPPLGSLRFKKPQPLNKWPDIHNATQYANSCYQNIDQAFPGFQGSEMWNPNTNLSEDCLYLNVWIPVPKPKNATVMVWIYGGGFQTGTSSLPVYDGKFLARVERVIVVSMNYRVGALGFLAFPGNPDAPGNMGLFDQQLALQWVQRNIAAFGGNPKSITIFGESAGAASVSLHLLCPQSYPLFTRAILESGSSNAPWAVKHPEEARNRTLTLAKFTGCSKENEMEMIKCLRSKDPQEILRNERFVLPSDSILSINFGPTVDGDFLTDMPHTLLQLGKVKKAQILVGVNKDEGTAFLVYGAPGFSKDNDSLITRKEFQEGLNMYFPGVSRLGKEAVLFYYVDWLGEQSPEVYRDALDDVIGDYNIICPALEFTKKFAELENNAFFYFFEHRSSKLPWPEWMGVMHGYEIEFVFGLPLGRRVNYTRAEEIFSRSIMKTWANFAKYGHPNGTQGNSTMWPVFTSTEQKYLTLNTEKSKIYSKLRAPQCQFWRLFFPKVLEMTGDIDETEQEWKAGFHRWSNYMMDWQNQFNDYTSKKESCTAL
# procedure summary: In vitro assay for choline esterase inhibition (Ellman method), butyrylthiocholine substrate, mouse serum
# Type: biochemical
# study conditions: selectivity for BuChE inhibition: IC50 (AchE)/IC50 (BuChE)
outcome measure: Ratio AChE/BuChE
One number for each entry.

molecule="CCCNC(=O)Oc1ccc2c(c1)CCN2Cc1ccccc1 [Example 114, 1-benzylindolin-5-yl n-propylcarbamate]" outcome_measure="Ratio AChE/BuChE" test_result=29
molecule="CN(C)c1ccc(NC(=O)Oc2ccc3c(c2)CCN3Cc2ccccn2)cc1 [Example 152]" outcome_measure="Ratio AChE/BuChE" test_result=19
molecule="Cc1ccccc1CCNC(=O)Oc1ccc2c(c1)CCN2Cc1ccccc1 [Example 115]" outcome_measure="Ratio AChE/BuChE" test_result=1200

For each entry beneath this line, provide reported Ratio AChE/BuChE.
1. CN(CC1CCOCC1)C(=O)Oc1ccc2c(c1)C(C)(C)CN2Cc1cccnc1 [Example 219]
2. CN(CC1CCCCC1)C(=O)Oc1ccc2c(c1)C(C)(C)CN2Cc1ccccc1 [Example 216]
3. O=C(NCc1ccccn1)Oc1ccc2c(c1)CCN2Cc1ccccc1 [Example 102]
4. O=C(NCCc1ccc(Cl)cc1)Oc1ccc2c(c1)CCN2Cc1ccccc1 [Example 104]
5. COc1ccc(CNC(=O)Oc2ccc3c(c2)CCN3Cc2ccccc2)cc1 [Example 31]

1. 17000
2. 23000
3. 77
4. 500
5. 240

For each entry beneath this line, provide reported Ratio AChE/BuChE.
1. O=C(NCc1ccccc1)Oc1ccc2c(c1)CCN2 [Example 127, indolin-5-yl benzylcarbamate]
2. O=C(Nc1ccc2c(c1)CCO2)Oc1ccc2c(c1)CCN2Cc1ccccc1 [Example 14]
3. O=C(NCc1ccncc1)Oc1ccc2c(c1)CCN2Cc1ccccc1 [Example 103]
4. CN(CC1CCOCC1)C(=O)Oc1ccc2c(c1)C(C)(C)CN2Cc1ccccc1 [Example 217]
5. CN(CC1CCOCC1)C(=O)Oc1ccc2c(c1)C(C)(C)CN2Cc1ccccn1 [Example 218]

1: 1.2; 2: 66; 3: 85; 4: 260000; 5: 13000

---

# measured on: butyrylcholine esterase (BuChE) (Mus musculus)
# Construct: brain homogenate and serum of mouse were used as choline esterase enzyme sources; from tissue; host or cells: mouse serum
# procedure summary: In vitro assay for choline esterase inhibition (Ellman method), butyrylthiocholine substrate, mouse serum
# Type: biochemical
# study conditions: selectivity for BuChE inhibition: IC50 (AchE)/IC50 (BuChE)
# Procedure: For measurement of esterase activity, brain homogenate and serum of mouse were used as choline esterase enzyme sources, and the method of Ellman et. al (Biochemical pharmacology 7: 88-95 1961) were referred. […] After incubation, thiocholine was produced by enzyme reaction in the mixture, and then, the yellow product was formed by the reaction of thiocholine and DTNB. […] And the selectivity for BuChE inhibition of each compound was calculated by the ratio: IC50 (AchE)/IC50 (BuChE).
outcome measure: Ratio AChE/BuChE

For each entry beneath this line, provide reported Ratio AChE/BuChE.
1. CCCCCC(C)NC(=O)Oc1ccc2c(c1)CCN2Cc1ccccc1 (stereo not shown) [Example 50, 1-benzylindolin-5-yl 2-heptylcarbamate]
2. CC(=O)NCCC1CN(Cc2ccccc2)c2ccc(OC(=O)Nc3ccc(C(C)C)cc3)cc21 (stereo not shown) [Example 160]
3. O=C(NC1CCN(Cc2ccccc2)CC1)Oc1ccc2c(c1)CCN2Cc1ccccc1 [Example 138]
4. CSCCCNC(=O)Oc1ccc2c(c1)CCN2Cc1ccccc1 [Example 49]
5. CC(C)(C)C1CCC(NC(=O)Oc2ccc3c(c2)CCN3Cc2ccccc2)CC1 (stereo not shown) [Example 43]
6. CNC(=O)Oc1ccc2c(c1)CCN2Cc1ccccc1 [Example 131, 1-benzylindolin-5-yl methylcarbamate]
7. COc1ccc(CCNC(=O)Oc2ccc3c(c2)CCN3Cc2ccccc2)cc1 [Example 32]
8. O=C(NCc1ccccc1)Oc1ccc2c(c1)CCN2Cc1ccccn1 [Example 150]

>1900
>180
>110
530
>590
6.2
>630
11

For each entry beneath this line, provide reported Ratio AChE/BuChE.
1. CC(C)(C)CCNC(=O)Oc1ccc2c(c1)CCN2Cc1ccccc1 [Example 42]
2. CC(C)c1ccc(NC(=O)Oc2ccc3c(c2)CCN3Cc2ccc[nH]2)cc1 [Example 65]
3. O=C(NC1CCCCC1)Oc1ccc2c(c1)CCN2Cc1ccccc1 [Example 20, 1-benzylindolin-5-yl cyclohexylcarbamate]

1. >4300
2. >140
3. >1500

For each entry beneath this line, provide reported Ratio AChE/BuChE.
1. O=C(NCC1CCOC1)Oc1ccc2c(c1)CCN2Cc1ccccc1 (stereo not shown) [Example 155]
2. CC(C)c1ccc(NC(=O)Oc2ccc3c(c2)C(C)CN3Cc2ccccc2)cc1 (stereo not shown) [Example 146]

1. 3800
2. >560
